These data points were gathered from ChEMBL document CHEMBL2203203.

Species on record: Homo sapiens
Test: Selectivity ratio of EC50 for human CB1 receptor to EC50 for human CB2 receptor
Measured Attribute: Ratio EC50

So for O=C(CN1CCCCC1)Nc1sc2c(c1C(=O)N1CC(F)(F)C1)CCCC2 , the logged Ratio EC50 turned out to be > 178

The recorded Ratio EC50 for COCCNC(=O)c1c(NC(=O)CN2CCCCC2)sc2c1CCCC2 is > 65

The compound listed as COCC(C)(C)NC(=O)c1c(NC(=O)c2ccccc2C(F)(F)F)sc2c1CCOC2 shows Ratio EC50 equal to > 243

Reported Ratio EC50 ( COCC(C)(C)NC(=O)c1c(NC(=O)c2ccccc2OC(F)(F)F)sc2c1CCOC2 ) = > 100

Memo: COCCNC(=O)c1c(NC(=O)C2CCCC2)sc2c1CCOC2 , reported Ratio EC50: > 32
